Consider the following compounds and their measured pIC50 readings.
# Target: Cyclin-dependent kinase 1 (Homo sapiens, UniProt P06493)
# Sequence (P06493 whole entry): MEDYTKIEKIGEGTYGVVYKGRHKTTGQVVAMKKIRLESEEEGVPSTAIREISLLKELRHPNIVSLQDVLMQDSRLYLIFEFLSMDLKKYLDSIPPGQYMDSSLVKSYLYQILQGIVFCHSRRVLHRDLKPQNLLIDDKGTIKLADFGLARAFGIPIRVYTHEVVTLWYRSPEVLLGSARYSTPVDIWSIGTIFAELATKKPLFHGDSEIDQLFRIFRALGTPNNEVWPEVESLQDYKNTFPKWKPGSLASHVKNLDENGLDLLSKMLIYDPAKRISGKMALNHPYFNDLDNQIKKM
# Method summary: Inhibition of Cyclin-dependent kinase 1
pIC50: −log10 of the molar value.
Readout type: pIC50

>  <Structure smiles string>
CC(C)n1cnc2c(NC3CCCC3)nc(NCCCO)nc21

>  <Target>
Cyclin-dependent kinase 1 (Homo sapiens, UniProt P06493)

>  <Censoring qualifier>
=

>  <Readout number>
5.62

$$$$
>  <Structure smiles string>
CC(C)n1cnc2c(NCc3ccccc3)ncnc21

>  <Target>
Cyclin-dependent kinase 1 (Homo sapiens, UniProt P06493)

>  <Censoring qualifier>
=

>  <Readout number>
5.46

$$$$
>  <Structure smiles string>
CC(C)n1cnc2c(NC34CC5CC(CC(C5)C3)C4)nc(NCCCO)nc21

>  <Target>
Cyclin-dependent kinase 1 (Homo sapiens, UniProt P06493)

>  <Censoring qualifier>
<

>  <Readout number>
4.00

$$$$
>  <Structure smiles string>
CC(C)n1cnc2c(N)nc(NCCCO)nc21

>  <Target>
Cyclin-dependent kinase 1 (Homo sapiens, UniProt P06493)

>  <Censoring qualifier>
=

>  <Readout number>
5.00

$$$$
